System: CCRIS mutagenicity, Ames/micronucleus/aberration tests
protocol: CCRIS mutagenicity studies
measurement-conditions: Test System: AMES SALMONELLA TYPHIMURIUM; Strain/Indicator: TA1538; Metabolic Activation: RAT, LIVER, S-9, AROCLOR 1254; Method: PREINCUBATION
Calls of active or inactive are those of the source. The rule behind the calls is not given here.
Can you answer with just one of these options? Y (active), N (inactive)

O=c1[nH]c(=O)n([C@H]2C[C@H](O)[C@@H](CO)O2)cc1/C=C/Br N

Test call for this molecule, please: Nc1ccccc1 N

Test call for this molecule, please: Nc1ccc2c(c1)CN1C(=O)c3ccccc3C1=N2 Y

Test call for this molecule, please: CC(=O)NC[C@H](O)COc1cccc2ccccc12 N

Test call for this molecule, please: CC1(C)COC1=O N

Test call for this molecule, please: CCC[C@]1(O)CC[C@H]2[C@@H]3CC[C@H]4CC(=O)C[C@H](C)[C@]4(C)[C@H]3CC[C@@]21C N

Test call for this molecule, please: Fc1c(F)c(F)c(Cl)c(F)c1F N
